# credit: the nanobody polyreactivity screen of Harvey et al. (2022)

test: yeast display, Sf9 membrane polyspecificity reagent, FACS + sequencing; frameworks hold sequencing errors

Sequence Chain	polyreactivity (PSR sort gate)
QVQLVESGGGLVQAGGSLRLSCAASGLIFSYYAMGWYRQAPGKERELVAGITRSGASTYADSVKGRFTISRDNAKNTVYLQMNSLKPEDTAVYYCAADWHYLGWFWQYSKYDYWGQGTQVTVSS	high polyreactivity
QVQLVESGGGLVQAGGSLRLSCAASGRIFPSYAMGRYRQAPGKERELVAAISRSGGRTYYADSVKGRFTISRDNAKNTVYFQMNSLKPEDTAVYYCARYGPYQSSYHYDYWGQGSQVTVSS	high polyreactivity

---

assay: yeast display, Sf9 membrane polyspecificity reagent, FACS + sequencing; frameworks hold sequencing errors
Quantity Kind: polyreactivity (PSR sort gate)

Sequence Chain	Quantity Kind	Recorded Measurement
QVQLVESGGGLVPAGGSLRLSCASSGITFRVYVMGWYRQAPGKESELVAPIDDNGGSTYYADSVKGRFTISRDNAKNTVYLQMNSLKPEDTAVYYCAKAIVYSLLEYGWVDYDDWGQGTQLTVSS	polyreactivity (PSR sort gate)	low polyreactivity
QVQLVDSGGGLVQAGGSLRLSCAASGRTFGIYAMGWYRQAPGKERELVAAIRWRDGSTYYADSVKGRFTISRDNAKNTVYLQMYSLKPEDNAVYYCAATSLVYVRGSYWKYGYWGQGTQVTVSS	polyreactivity (PSR sort gate)	high polyreactivity
QVQLVESGGGLVQAGGSLRLSCAASGRIFGANAMGWYRQAPGKERELVAAIDDGVSTNYADSVKGRFTISRDNAKNTVYLQMNSLKPEDTAVYYCAKRSFVGGRGRDSDYWGQGTQVTVSS	polyreactivity (PSR sort gate)	low polyreactivity
QVQLVESGGGLVQAGGSLRISCAASGSIFAKNAMGWYRQAPGKERELVAGIDFSGGSTYYADSVKGRFTISRDNAKNTVYLQMNSLKPEDTAVYYCAADWAYKYELDYWGQGTQVTVSS	polyreactivity (PSR sort gate)	low polyreactivity
QVQLVESGGGLVQAGGSLRLSCAASGRIFYSYAMGWSRQAPGKERELVAAISFSVGSTYYADSVKGRFTISRDNAKNSVYLQMNSLKPEDTAVYYCAASLGFPGYEYWGQGTQVTVSS	polyreactivity (PSR sort gate)	low polyreactivity
QVQLVESGGGLVQAGGSLRLSCAASGRIFWYYDMGWYRPAPGKERELVAAISQRGGSTYYADSVKGRFTISRDNAKNTVYLQMNSLKPEDTAVYYCAAYSRYLGPTHHIKYDYWGQGTQVTVSS	polyreactivity (PSR sort gate)	high polyreactivity
QVQLVESGGGLVQAGGSLRLSCAASGSIFVWYAMGRYRQAPGQERELVARITSGGRTNYADSVKGRFTISRDNAKNTVYLQMISLKPEDTAVYYCAAGRVSWSPDYYWGQGTQGTVSS	polyreactivity (PSR sort gate)	high polyreactivity
QVQLEESGGGLVQAGGSLRLSCAASGSIFFFYAMGWYRQAPGKERELVAAISSDGSTKYADSVKGRFTISRDNAKNTVYLQMNILKPEDTAVYYCNADKWSVVGYVLGFYRDDYWGQGTQVTVSS	polyreactivity (PSR sort gate)	low polyreactivity
QVQLVESGGGLVQAGGSLRLSCAASGRIFNGNALGWYRQAPGNERELVAAISSGGRTYYADSVKGRFTISRDNAKNTVYLQMNSLKPEDTAVYYCNARGYSGRVIPEYYYWGQGTQVTVSS	polyreactivity (PSR sort gate)	high polyreactivity
QVQLVESGGGLVQAGGSLRLSCAASGRTFYPYAMGWYRQAPGKERELVAAITWSGGSTYYADSVKGRFTISRDNAKNTVYLQMNSLKPEDTAVYYCNATYEASFYYEYDYWGQGTQVTVSS	polyreactivity (PSR sort gate)	low polyreactivity
QVQLVESGGGLVQAGGSLRLSCAASGSIFAGYAMGWYRQAPGKERELVAAISKSAGSTYYADSVKGRFTISRDNAKNTVYLQMNSLKAEDTAVYYCAARTFNTYPSYYYWGQGTQVTVSS	polyreactivity (PSR sort gate)	high polyreactivity
QVQLVESGGGLVQAGGSLRLSCAASGSTLTYYAMGWYRQAPGKERELVAAISVSGGRTYYADSVKGRFTISRDNAKYTVYLQMNSLKPEDTAVYYCNALSSRAGGRGYDYWGQGTHVTVSS	polyreactivity (PSR sort gate)	high polyreactivity
QVQLVESGGGLVQAGGSLRLSSAASGRTFFRYAMGWYRQAPGKERELVAAITWSGGTTYYADSVKGRFTISRDNAKNTVYLQMNSLKPEDTAVYYCNGRGLWYRRVVTYGYWGQGTQVTVSS	polyreactivity (PSR sort gate)	high polyreactivity
